- method.summary: qHTS of pediatric cancer cell lines to identify multiple opportunities for drug repurposing: Primary screen for DAOY cells (AID 1347090); note: nearly all actives have a fitted effect of over 55% in size
- cond: DAOY medulloblastoma viability, CellTiter-Glo luminescence, 48 h; series mostly up to 46 µM
Inconclusive results are not listed. The source made the active and inactive calls. Calls come from the whole dose curve; as a rule, active = well fitted cell-killing curve with a large enough effect; inconclusive = small, poorly fitted or top-dose-only effect; inactive = flat fitted curve, though single readings scatter.
Outcome field: choose from True for active, False for inactive

compound	label.value
Cn1c(=O)c2[nH]cnc2n(C)c1=O	False

As a next step, examine the compound that follows.
Q: Outcome logged for Cc1cnc(C(=O)NCCc2ccc(S(=O)(=O)NC(=O)NC3CCCCC3)cc2)cn1 in this assay:
A: False

* * *

- System: PAD
- method.summary: qHTS profiling for inhibitors of Plasmodium falciparum proliferation (AID 504749); note: nearly all actives have a fitted effect of over 60% in size
- cond: P. falciparum in erythrocytes, SYBR Green DNA, 72 h; series mostly up to 28.7 µM
Results filed as inconclusive are left out. Calls of active or inactive are those of the source. Calls follow the shape of the dose curve; as a rule, active = well fitted inhibition curve with a large enough effect; inconclusive = small, poorly fitted or top-dose-only effect; inactive = flat fitted curve, though single readings scatter.
Assign a class; possible classes are active, inactive

Reference set, count: 9
O=C1c2c(O)ccc(O)c2C(=O)c2c(NCCNCCO)ccc(NCCNCCO)c21 active
O=C1N(c2ccccc2)c2ccccc2C1(Cc1ccncc1)Cc1ccncc1 inactive
CN1C(C(=O)Nc2ccccn2)=C(O)c2ccccc2S1(=O)=O inactive
CNCCCC12CCC(c3ccccc31)c1ccccc12 inactive
O=c1c(O)c(-c2ccc(O)c(O)c2)oc2cc(O)cc(O)c12 active
Cc1cc(C(C)(C)C)c(O)c(C)c1CC1=NCCN1 inactive
CS(=O)(=O)CCNCc1ccc(-c2ccc3ncnc(Nc4ccc(OCc5cccc(F)c5)c(Cl)c4)c3c2)o1 inactive
O=C(Nc1ccc([N+](=O)[O-])cc1Cl)c1cc(Cl)ccc1O active
CC(C)C(=O)Nc1ccc([N+](=O)[O-])c(C(F)(F)F)c1 inactive

Q: For Cc1cnc(C(=O)NCCc2ccc(S(=O)(=O)NC(=O)NC3CCCCC3)cc2)cn1 , what call appears in the results of this test?
A: inactive

* * *

- method.summary: qHTS of pediatric cancer cell lines to identify multiple opportunities for drug repurposing: Confirmatory screen for MG 63 (6-TG R) cells (AID 1347119); note: nearly all actives have a fitted effect of over 55% in size
- cond: MG-63 (6-TG resistant) osteosarcoma viability; series mostly up to 45.9 µM
- Protocol: Drug repurposing or repositioning has been offered as a strategy for drug development in oncology programs. […] [1] Shen, M et al. Quantitative high-throughput phenotypic screening of pediatric cancer cell lines identifies multiple opportunities for drug repurposing. […] Cells were assayed in growth media at a density of 500-1,000 cells/well. […] After a 15 min incubation at room temperature, samples were analyzed for luminescence intensity using a ViewLux High-throughput CCD imager equipped with clear filters.
Records with an inconclusive call do not appear. The source made the active and inactive calls. Calls come from the whole dose curve; as a rule, active = well fitted cell-killing curve with a large enough effect; inconclusive = small, poorly fitted or top-dose-only effect, or effect the other way; inactive = no such curve, though single readings can be large or run the other way.
The categories you may choose from are true for active, false for inactive

Some solved entries appear below for comparison.
COc1cc2c(c(OC)c1OC)-c1ccc(OC)c(=O)cc1[C@@H](NC(C)=O)CC2 true
Clc1ccc2nsnc2c1NC1=NCCN1 false
CCC1(c2ccccc2)C(=O)NCNC1=O false
CS(=O)(=O)Nc1ccc([N+](=O)[O-])cc1Oc1ccccc1 true
NC(=O)NO false
CC[C@@]1(O)C(=O)OCc2c1cc1n(c2=O)Cc2cc3c(CN(C)C)c(O)ccc3nc2-1 true
O=C1c2c(O)ccc(O)c2C(=O)c2c(NCCNCCO)ccc(NCCNCCO)c21 true

Q: In this assay, the call recorded for O=C(Nc1ccc([N+](=O)[O-])cc1Cl)c1cc(Cl)ccc1O was what?
A: true
